Test system: Mycobacterium tuberculosis
EXPERIMENT_NOTES: Antimicrobial activity aagainst Mycobacterium tuberculosis ATCC 14468 in log phase by agar dilution method
Type: functional
Strictly below 20 µM in MIC: YES. Otherwise: NO.

Example entries and their recorded answers appear below.
QUERY_SMILES	SYSTEM_UNDER_TEST	CATEGORY
C/C(=N\NC(=O)c1ccc([N+](=O)[O-])o1)c1ccc([N+](=O)[O-])cc1	Mycobacterium tuberculosis	YES
COc1cc(/C=N/NC(=O)c2ccc([N+](=O)[O-])o2)ccc1O	Mycobacterium tuberculosis	NO
O=C(N/N=C/c1ccccc1C(F)(F)F)c1ccc([N+](=O)[O-])o1	Mycobacterium tuberculosis	YES
O=C(N/N=C/c1c(Cl)cccc1Cl)c1ccc([N+](=O)[O-])o1	Mycobacterium tuberculosis	YES

Now, please, on to the next compound.
Would you kindly verify if MIC of `O=C(N/N=C/c1ccc(F)cc1)c1ccc([N+](=O)[O-])o1` is strictly less than 20 µM?
NO
